Reference source: ChEMBL document CHEMBL1201861

Test system: T98G;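 also: growth inhibition of T98G cells, read out by a cell viability assay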
Assay: cells
Type: functional, cell-based
Conditions: Homo sapiens
Description: SANGER: Inhibition of human T98G cell growth in a cell viability assay.
quantity.measured: IC50 (nM)
One number for each entry, in nM.

>  <chemical.smiles>
CN(NC(=O)CC(=O)NN(C)C(=S)c1ccccc1)C(=S)c1ccccc1

>  <readout.value>
34.3

$$$$

The following compounds each have a reported value; give each one's IC50.
1. C/C(=C\c1csc(C)n1)[C@@H]1C[C@@H]2O[C@]2(C)CCC[C@H](C)[C@H](O)[C@@H](C)C(=O)C(C)(C)[C@@H](O)CC(=O)O1
2. NC(=O)Nc1cc(-c2cccc(F)c2)sc1C(=O)N[C@H]1CCCNC1

1. 20
2. 246

====

Tested on: NCI-H596;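 also: growth inhibition of NCI-H596 cells, read out with a cell viability assay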
Experiment: cells
Format: functional, cell-based
Conditions: Homo sapiens
Description: SANGER: Inhibition of human NCI-H596 cell growth in a cell viability assay.
quantity.measured: pIC50
Give bare numbers, as −log10 of the molar value.

>  <chemical.smiles>
CN(NC(=O)CC(=O)NN(C)C(=S)c1ccccc1)C(=S)c1ccccc1

>  <readout.value>
7.35

$$$$

For the next question, use this compound.
Look up pIC50 for this compound: C/C(=C\c1csc(C)n1)[C@@H]1C[C@@H]2O[C@]2(C)CCC[C@H](C)[C@H](O)[C@@H](C)C(=O)C(C)(C)[C@@H](O)CC(=O)O1
7.93

====

Test system: HD-MY-Z
Assay: cells
Assay type: functional, cell-based, Homo sapiens
Details: Homo sapiens, HD-MY-Z
Description: SANGER: Inhibition of human HD-MY-Z cell growth in a cell viability assay.
quantity.measured: IC50

Below: 2 compounds and their reported IC50.
>  <chemical.smiles>
CC1=C(/C=C/C(C)=C/C=C/C(C)=C/C(=O)O)C(C)(C)CCC1

>  <IC50>
> 10000 nM

$$$$
>  <chemical.smiles>
C[C@@H](Oc1cc(-c2cnn(C3CCNCC3)c2)cnc1N)c1c(Cl)ccc(F)c1Cl

>  <IC50>
> 2000 nM

$$$$

The following compounds each have a reported value; give each one's IC50.
1. COC(=O)[C@H](CCSC)NC(=O)c1ccc(NC[C@@H](N)CS)cc1-c1ccccc1
2. Cc1ccc(-n2nc(C(C)(C)C)cc2NC(=O)Nc2ccc(OCCN3CCOCC3)c3ccccc23)cc1
3. COc1cc(N2CCC(N3CCN(C)CC3)CC2)ccc1Nc1ncc(Cl)c(Nc2ccccc2S(=O)(=O)C(C)C)n1

> 1020 nM
> 10000 nM
> 2000 nM

====

Tested on: SIMA;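 also: growth inhibition of SIMA cells, measured with a cell viability readout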
Experiment: cells
Format: functional, cell-based, Homo sapiens
Details: Homo sapiens, SIMA
Description: SANGER: Inhibition of human SIMA cell growth in a cell viability assay.
quantity.measured: IC50 (µM)
Give bare numbers, in µM.

Look up IC50 for this molecule: CCCCCCCCCCCC1=C(O)C(=O)C=C(O)C1=O
6.37

====

Tested on: YT
Experiment: cells
Assay type: functional, cell-based, Homo sapiens
Settings: Homo sapiens, YT
Description: SANGER: Inhibition of human YT cell growth in a cell viability assay.
quantity.measured: pIC50
Answers are plain numbers, as −log10 of the molar value.

Below: 2 molecules and their reported pIC50.
>  <chemical.smiles>
C/C(=C\c1csc(C)n1)[C@@H]1C[C@@H]2O[C@]2(C)CCC[C@H](C)[C@H](O)[C@@H](C)C(=O)C(C)(C)[C@@H](O)CC(=O)O1

>  <pIC50>
7.73

$$$$
>  <chemical.smiles>
Cc1ccc(C(=O)Nc2ccc(CN3CCN(C)CC3)c(C(F)(F)F)c2)cc1C#Cc1cnc2cccnn12

>  <pIC50>
6.57

$$$$

For the next question, use this molecule.
Give the reported pIC50 for COc1ccc(-c2cc3nccn3c(Nc3ncccc3C(N)=O)n2)cc1OC (system: YT).
5.63
